# ASSAY_INFO: yeast display, Sf9 membrane polyspecificity reagent, FACS + sequencing; frameworks hold sequencing errors
MEASUREMENT_LABEL: polyreactivity (PSR sort gate)

POLYMER_SEQUENCE	polyreactivity (PSR sort gate)
QVHLVESGGGLVQAGGSLRLSCAASGSTFSIYTMGWYRQAPGKERELVAVITKSGGSTYYADSLKGRFTISRDNAKNTVYLQMISLKPEDIAVYYCAARRRGARHDYWGQGTQVTVSS	high polyreactivity
QVQLVESGGGLVQAGGSLRLSCAASGSIFGGYTMGWYRQAPGKERELVAAISRRGGNTYYADSVKGRFTISRDYAKNTVYLQMNSLKPDDTAVYFCAKRYASTSGYWGQGTQVTVSS	high polyreactivity
QVQLVESGGGLVQAAGSLRLSCAASGITFSWYAMGWYRQAPGNERALVASITQSGGSTYYADSVKGRFTISRDNAKNTVYLQMTCLKPEVTAVYYCSKRYLKPVYCYVRNYGSDYWGQGTQVTVSS	low polyreactivity
QVQLVESGGGLVQAGGSLRLSCAASGSNFTAYAMGWYRQAPGKERELVAAIDDSGDSTYYADSVKGRFTISRDNSKNTVYLQMNSLKPEDTAVYYCKAEYRVNKEYDYWGQGTQVTVSS	low polyreactivity
QVQLVESVGGLVQAGGSLRFTCAASGGTFRVNAMGWYRQAPGKEREFVAAISGSGSSTYYADSVKGRFTISRDNAKNTVYLQMNSLKPEDTAVYYCAARSGVGGDNDYWGQGTQVTVSS	low polyreactivity
QVQLVESGGGLVQAGGSLRLSCAASGSTFRRYAMGWSRQAPGKVRELVAAISRTGRTNYADSVKGRFTISRDNAKYTVYLQMNSLKPEDTAFDYCAAKSSTKQRKYYWGQGTQVTVSS	high polyreactivity

Record `QVQLVESGGGLVQAGGSLRLSCAASGITIRYNAMGWYRQAPGKERELVAAISRGGDRTYYADSVKGRFTISRDNAKNTVYLQMNSLKPEDTAVYYCAADWSEKYEYWGQGTQVTVSS` . Reported polyreactivity (PSR sort gate): high polyreactivity

Record `QVQLVESGGGLVQAGGSLRLSCAASGSILTPYAMGWYRQAPGKERELVAAISWGDGSTYYADSVKGRFTISRDNAKNTVYLQMNSLNPEDNAVYYCAAVSYYGVDQYRITVYTYEYWGQGTQVTVSS` . Reported polyreactivity (PSR sort gate): low polyreactivity

Record `QVQLVESGGGLVQPGGSLRLSCAASGSIFYCNAMGSYRQAPGKEREFVAGITTSGGSTYYADSVKGRFTISRDNAKNTVYLQMNSLKPDDTAVYYCNKVWVYAVTPSSWYKYGSWGQGNQVTVSS` . Reported polyreactivity (PSR sort gate): low polyreactivity

Record `QDQLVESGGGLVQAGGSLRLSCAASGFTIERYAMGWYRQAPGKERELVAVISTSGGSTYYADSVKGRFTISRDNGKNTVYLLMNSLKPEDTAVYYCAAPSVSQYSSKKYDYWGQGTQVTVSS` . Reported polyreactivity (PSR sort gate): low polyreactivity

Record `QGQLVESGGGLVQAGGSLRLSCAASGNIFNRYGMGWSRQAPGKERELVAAISSSGTSPYYADSVKGRFTISRDYAKNTVYLQMNSLKPEDTAVYYCAASYPTRAWEYDYWGQGTQVTVSS` . Reported polyreactivity (PSR sort gate): high polyreactivity

Record `QVHLVESGGGLVQAGGSLRLSCAASGRTFWYYAMGWYRPAPGKERELVAAITRTGGSTYYADSVKGRFTISRDYAKNTVYLQMNSLKPEDTAVYYCARKYSYPVVAPSDYYWGQGTQVTVSS` . Reported polyreactivity (PSR sort gate): high polyreactivity

Record `QVQLVESGGGLVQAGGSLRLSCAASGRIFVRNAMGWYRQAPGKERELVAAITTGGRTYYADSVKGRFTISRDNAKNTVYVQMNSVKPEDTAVYYCAATGDRKGYKYIYSDTNDYWGQGTQVTVSS` . Reported polyreactivity (PSR sort gate): low polyreactivity

Record `QVQLVESGGGLVQAGGSLRLSCAASGLTFEYYAMGWYRQAPGKERELVAAITSTGSTNYADSVKGRFTISRDNAKNTVYLQMNSLKPEDTAVYFCNAEKPEGSTLYDYDYWGQGTQVTVSS` . Reported polyreactivity (PSR sort gate): low polyreactivity

Record `QVQLVESGGGLVQAGGSLRLSCADSGITFGVYAMGWYRQAPGKERELVAAISRRGASTYYADSVKGRFTISRDNAKNTVYLQMNSLKPEDTAVYYCAAYLARRQYDYWGQGTQVTVSS` . Reported polyreactivity (PSR sort gate): high polyreactivity

Record `QFQLVESGVGLVQAGASLRLSCAASVLTFVGNAMGWYRQAPGKERELVDAISKRGGRTYYADSVKGRFRISRDNAKNTVYLQMNSLKPEDTAVYYCAATIKAYPTPLLGDYWGQGTQVTVSS` . Reported polyreactivity (PSR sort gate): high polyreactivity

Record `QVQLVESGGGLVQAGGSLRLSCAASGSIFGYNVMGWYRQAPGKERELVAAINYSGGRTYYADSVKGRFTISRDNAKNTVYLEMNSLKPEDTAVYYCAAVPLSRYTVFNYDYWGQGTQVTVSS` . Reported polyreactivity (PSR sort gate): high polyreactivity

Record `QVQLVESGGGLVQAGGSLRLSCAASGITLYFYAMGWYRQAPWKERELVAAISRGGRTYYADSVKGRFTISRDNAKNTVYLQMNSLKPEDTAVYYCAARYTSEYSAFDYWGQGTQVTVSS` . Reported polyreactivity (PSR sort gate): low polyreactivity

Record `QVQLVESGGGLVQAGGSLRLICAASGYIFYKNAMGWYRQAPGKERELVASITGTGGSTYYADSVKGRFTISRDNAKNTVYLQMNSLKPEDTAVYYCAADYTPWDPVSHWGQGTQVTVSS` . Reported polyreactivity (PSR sort gate): low polyreactivity

Record `QVQLVESGGGLVQAGGSLRLSCAASGIIFKYYAMGWYRQAPGKEREFVATISRRGGSTYYAYSVKGRFTISRDNAKNTVYLQMNSLKPEDTAVYYCATEYSPGREYKFNFWGQGTQVTVSS` . Reported polyreactivity (PSR sort gate): high polyreactivity

Record `QVQLVESGGGLVQAGGSLRLSCAASGFIFRQYAMGWYRQAPGKERELVAAISRSGGSTYYADSVKGRFTISRDNAKNTVYLQMNSLKPEDTAVYYCAVRYNQWYLNFGRYDYWGQGTQVTVSS` . Reported polyreactivity (PSR sort gate): high polyreactivity

// provenance: the nanobody polyreactivity screen of Harvey et al. (2022)
